Entry source: patent US9732075B2

# TARGET_ENTITY: human orexin-2 receptor (Homo sapiens (Human), UniProt O43614)
# Sequence (O43614 whole entry): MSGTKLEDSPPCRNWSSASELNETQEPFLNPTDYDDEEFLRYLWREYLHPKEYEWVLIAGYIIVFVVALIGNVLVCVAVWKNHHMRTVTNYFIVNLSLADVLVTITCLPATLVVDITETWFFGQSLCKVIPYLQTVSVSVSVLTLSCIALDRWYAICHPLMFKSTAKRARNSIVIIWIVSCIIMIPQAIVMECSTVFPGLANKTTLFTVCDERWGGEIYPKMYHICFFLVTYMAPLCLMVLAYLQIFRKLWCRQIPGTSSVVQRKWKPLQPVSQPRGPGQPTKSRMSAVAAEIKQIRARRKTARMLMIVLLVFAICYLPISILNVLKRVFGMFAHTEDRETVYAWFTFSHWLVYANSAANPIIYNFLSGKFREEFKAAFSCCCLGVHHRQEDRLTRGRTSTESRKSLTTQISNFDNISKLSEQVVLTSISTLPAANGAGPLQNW
# TEST_SUMMARY: In vitro assay: intracellular calcium measurements (FLIPR), antagonistic activity
# MEASUREMENT_CONDITIONS: CHO cells expressing human orexin-2 receptor, orexin-A agonist, geometric mean, read-out: IC50 Ox2
ASSAY_ENDPOINT: IC50 (nM)

Field: example entries. Status: answers known.
C=C1C[C@@H](c2nc3cc(C(C)(C)C)ccc3[nH]2)N(C(=O)c2cc(C)c(C)cc2-n2nccn2)C1 [Ex. 6.165]
3
Cc1c(Cl)ccc2[nH]c([C@]3(C)CCCN3C(=O)c3cc(Cl)ccc3-n3nccn3)nc12 [Ex. 5.34]
9

1: C=C1C[C@@H](c2nc3cc(C)c(C)cc3[nH]2)N(C(=O)c2cc(OC)c(OC)cc2-n2nccn2)C1 [Ex. 6.200]
2: Cc1ccc(-c2ccc(C)cc2C(=O)N2CCC[C@@]2(C)c2nc3c(C)c(C)ccc3[nH]2)cc1 [Ex. 5.113]
Field: lower IC50 | Options: 1 / 2 Give the label under which the chosen entry appears.
1
